Where do these numbers come from? They come from PubChem BioAssay AID1020.

test system: glucose-6-phosphate dehydrogenase [Leuconostoc mesenteroides]; assay: bacterial G6PDH enzyme inhibition, coupled readout – biochemical, Leuconostoc mesenteroides enzyme, counter-screen for G6PDH-coupled screening assays (AID 1020); settings: Purified L. mesenteroides G6PDH, diaphorase/resazurin coupled fluorescence, 45 min; at 5 µM; active compounds read high
Screen size: about 200,000 compounds; about 240 (0.12%) were called active. Only a selection was taken, and actives are over-represented in it overall.
inhibition reference

Task: Which inhibition reading was recorded for the molecule "O=c1c([N+](=O)[O-])cccn1Cc1ccc(F)cc1Cl" ?
Output: 8% (inactive)

Task: Which inhibition reading was recorded for the molecule "CN(CC(=O)Nc1ccccc1[N+](=O)[O-])Cc1ccc(Br)cc1" ?
Output: -0.3% (inactive)

Task: Which inhibition reading was recorded for the molecule "C=CCn1c(CCNC(=O)c2cccs2)n[nH]c1=S" ?
Output: 10.1% (inactive)

Task: Which inhibition reading was recorded for the molecule "O=C(c1ccccc1-c1ccccc1)N1CCOCC1" ?
Output: 1.2% (inactive)

Task: Which inhibition reading was recorded for the molecule O=C(NC1CCCC1)C(NS(=O)(=O)c1ccc(Br)s1)c1ccccc1 (stereo not drawn) ?
Output: 15.8% (inactive)

----------
system: glucose-6-phosphate dehydrogenase [Leuconostoc mesenteroides]; assay: bacterial G6PDH enzyme inhibition, coupled readout – biochemical, Leuconostoc mesenteroides enzyme, counter-screen for G6PDH-coupled screening assays (AID 1020); settings: Purified L. mesenteroides G6PDH, diaphorase/resazurin coupled fluorescence, 45 min; at 5 µM; active compounds read high
The campaign covered roughly 200,000 compounds. About 240 (0.12%) were called active. The full list was thinned out, with actives kept by preference.
inhibition reference
Hi! Could you send only the number? It should be in %, unit omitted.

Look over these answered cases.
C/C(=N\NC(=O)CNC(=O)C(c1ccccc1)c1ccccc1)c1ccc(C)cc1: 11.2
COCC(C)n1c(C)cc(C(=O)CSc2cc(C)c3ccccc3n2)c1C (configuration not stated): -2.6
CCCN(CCC)CCCNC(=O)CNC(=O)c1nn(-c2ccc(OC)cc2)c(=O)c2ccccc12: 6
CC(=O)N1c2ccccc2N(Cc2ccc([N+](=O)[O-])cc2)C(=O)C1(C)C: 4.5
O=C(CSc1nnc(SCc2ccc(Cl)cc2)s1)N/N=C/c1ccccc1Cl: -21.5
CC(O)c1cccc(NC(=O)Cc2cccc3ccccc23)c1 (configuration not stated): 0.6

Task: Which inhibition reading was recorded for the compound "COc1cc(C=O)c(Br)cc1OCC(=O)NCc1ccccc1" ?
Output: 6.7

Task: Which inhibition reading was recorded for the compound COc1ccc(-c2cc(C(=O)NC(Cc3c[nH]c4ccccc34)C(=O)O)c(C)o2)cc1OC (configuration not stated) ?
Output: 6.7

Task: Which inhibition reading was recorded for the compound "CCOC(=O)C1CN(S(=O)(=O)c2ccc(F)cc2)C1" ?
Output: 4.5

Task: Which inhibition reading was recorded for the compound "CC(C)CNC(=S)NC(=O)c1ccc(Cl)cc1" ?
Output: 4.7

Task: Which inhibition reading was recorded for the compound "CCOC(=O)CNC(=O)/C=C/c1c(Cl)cccc1Cl" ?
Output: 1.5

Task: Which inhibition reading was recorded for the compound "CCO[C@H]1OC(C(=O)N2CCOCC2)=C[C@@H](c2ccc3c(c2)OCO3)[C@@H]1CCCO" ?
Output: 9.9

Task: Which inhibition reading was recorded for the compound "CCn1c(=S)[nH]c2sc3c(c2c1=O)CCCCC3" ?
Output: -4.4

Task: Which inhibition reading was recorded for the compound "Cc1nn2cc(-c3ccc(Cl)cc3)cnc2c1Br" ?
Output: -0.7

Task: Which inhibition reading was recorded for the compound "COc1ccc(/C=C2/C(=O)OCc3cc(OC)c(OC)cc32)c(OC)c1" ?
Output: -2.8

Task: Which inhibition reading was recorded for the compound COc1ccccc1CNC(=O)C1Cc2ccccc2C(=O)O1 (configuration not stated) ?
Output: 14.2

Task: Which inhibition reading was recorded for the compound "Cc1[nH]c2ccccc2c1-c1ccc(Cl)nn1" ?
Output: 6.2

Task: Which inhibition reading was recorded for the compound "CCOc1cc(C(=O)OCC(=O)Nc2cccc(C)c2)ccc1OCC(=O)N1CCOCC1" ?
Output: -19.1

Task: Which inhibition reading was recorded for the compound CCOc1ccccc1NC(=O)C1CCCN(C(=O)Nc2ccccc2)C1 (configuration not stated) ?
Output: 4.5

Task: Which inhibition reading was recorded for the compound "O=C(CSc1ccc(-c2ccco2)nn1)NCc1ccc2c(c1)OCO2" ?
Output: 6.1

Task: Which inhibition reading was recorded for the compound COc1ccc(C(=O)C2CCCN(C(=O)c3cc4nc(C)cc(C)n4n3)C2)cc1F (configuration not stated) ?
Output: 0.8

Task: Which inhibition reading was recorded for the compound "O=C(COc1ccc(NC(=O)c2ccccc2[N+](=O)[O-])cc1)c1ccc(F)cc1" ?
Output: 8.6

----------
system: glucose-6-phosphate dehydrogenase [Leuconostoc mesenteroides]; assay: bacterial G6PDH enzyme inhibition, coupled readout – biochemical, Leuconostoc mesenteroides enzyme, counter-screen for G6PDH-coupled screening assays (AID 1020); details: Purified L. mesenteroides G6PDH, diaphorase/resazurin coupled fluorescence, 45 min; at 5 µM; active compounds read high
The whole screen tested about 200,000 compounds, of which about 240 (0.12%) were called active. The sample holds actives, similar compounds and a random draw of the others, so the mix is not that of the screen.
Property Measured: inhibition (%)
Hi! Could you send only the number? It should be in %, unit omitted.

CCOC(=O)c1c(C)[nH]c(=S)c(C#N)c1-c1ccccc1: -20.7
Cn1c(N)c(C(=O)COC(=O)c2ccccc2NCc2ccco2)c(=O)n(C)c1=O: 0.8
COC(=O)CC(=O)N1CCN(c2ccc(Cl)c(Cl)c2)CC1: -3.9
O=C(Nc1ccc(-c2ccc3nncn3n2)cc1)C1CCCCC1: 3.6
CCOC(=O)C1=C(c2ccc(OC)cc2)C(=O)c2ccccc2C1=O: 31.9
CS(=O)(=O)c1ccc2nc(NC(=O)c3ccc(Cl)nc3)sc2c1: -4.6
COc1ccc(/C=N/S(=O)(=O)c2ccccc2)cc1OC: 8.4
CCOC(=O)Cc1cc(=O)[nH]c(=O)[nH]1: 4.9

Task: Which inhibition reading was recorded for the compound "CSc1c(SCc2ccccc2)cnn(Cc2ccccc2)c1=O" ?
Output: 5.1

Task: Which inhibition reading was recorded for the compound CCOC(=O)C(C)Oc1cccc2c(=O)n(CC(=O)NCCc3ccc(OC)c(OC)c3)ccc12 (stereo not given) ?
Output: 12.1

----------
tested on: glucose-6-phosphate dehydrogenase [Leuconostoc mesenteroides]; experiment: bacterial G6PDH enzyme inhibition, coupled readout – biochemical, Leuconostoc mesenteroides enzyme, counter-screen for G6PDH-coupled screening assays (AID 1020); conditions: Purified L. mesenteroides G6PDH, diaphorase/resazurin coupled fluorescence, 45 min; at 5 µM; active compounds read high
About 240 (0.12%) of roughly 200,000 compounds were called active. Many of the other results were omitted from the sample, so actives are more common in it than they were.
inhibition reference

Look over these answered cases.
C/C(Cc1ccccc1)=N\NC(=O)CNC(=O)c1cccc(Br)c1: 8.4% (inactive)
O=C(Nn1cnnc1)c1ccc([N+](=O)[O-])cc1: 6% (inactive)

Now look at this one.
Task: Which inhibition reading was recorded for the compound "Cc1nc2scc(-c3cccs3)c2c(=O)n1N" ?
Output: 0% (inactive)

----------
tested on: glucose-6-phosphate dehydrogenase [Leuconostoc mesenteroides]; experiment: bacterial G6PDH enzyme inhibition, coupled readout – biochemical, Leuconostoc mesenteroides enzyme, counter-screen for G6PDH-coupled screening assays (AID 1020); conditions: Purified L. mesenteroides G6PDH, diaphorase/resazurin coupled fluorescence, 45 min; at 5 µM; active compounds read high
About 240 (0.12%) of roughly 200,000 compounds were called active. The full list was thinned out, with actives kept by preference.
Property Measured: inhibition (%)
Hi! Could you send only the number? It should be in %, unit omitted.

Look over these answered cases.
CCC1CCCCN1C(=S)Nc1ccc(SC(F)F)cc1 (stereo not given): -14.7
O=C(/C=C/c1ccccc1[N+](=O)[O-])OC1CCCCC1=O (stereo not given): 3

Task: Which inhibition reading was recorded for the molecule Cc1c(Br)c([N+](=O)[O-])nn1CC(=O)Nc1sc2c(c1C(=O)OC(C)C)CCC(C)C2 (stereo not given) ?
Output: -7.9

Task: Which inhibition reading was recorded for the molecule CC(C(=O)N=Nc1c(O)n(C)c2ccc(Br)cc12)n1cnc2ccccc2c1=O (stereo not given) ?
Output: -0.8

Task: Which inhibition reading was recorded for the molecule Cc1cc(C)c(NC(=O)C[N+](C)(C)CC(O)COc2cccc3ccccc23)c(C)c1 (stereo not given) ?
Output: -0.6

Task: Which inhibition reading was recorded for the molecule O=C(NC(=S)NC1CCSC1=O)c1ccccc1F (stereo not given) ?
Output: 13.8

Task: Which inhibition reading was recorded for the molecule "CC(C)N(Cc1ccccc1)C(=S)Nc1ccc(OC(F)F)cc1" ?
Output: 0.3

Task: Which inhibition reading was recorded for the molecule "COc1ccc(Cl)cc1NC(=O)CNc1ccccc1F" ?
Output: -1.9

Task: Which inhibition reading was recorded for the molecule COC1=CCC2([N+](=O)[O-])CN(CC(=O)O)CC1([N+](=O)[O-])C2 (stereo not given) ?
Output: -3.5

Task: Which inhibition reading was recorded for the molecule "O=C(N/N=C/c1ccccn1)C12CC3CC(CC(C3)C1)C2" ?
Output: 1.5
